Target: COX-2 (Mus musculus (Mouse))
Sequence (Q05769 18-604): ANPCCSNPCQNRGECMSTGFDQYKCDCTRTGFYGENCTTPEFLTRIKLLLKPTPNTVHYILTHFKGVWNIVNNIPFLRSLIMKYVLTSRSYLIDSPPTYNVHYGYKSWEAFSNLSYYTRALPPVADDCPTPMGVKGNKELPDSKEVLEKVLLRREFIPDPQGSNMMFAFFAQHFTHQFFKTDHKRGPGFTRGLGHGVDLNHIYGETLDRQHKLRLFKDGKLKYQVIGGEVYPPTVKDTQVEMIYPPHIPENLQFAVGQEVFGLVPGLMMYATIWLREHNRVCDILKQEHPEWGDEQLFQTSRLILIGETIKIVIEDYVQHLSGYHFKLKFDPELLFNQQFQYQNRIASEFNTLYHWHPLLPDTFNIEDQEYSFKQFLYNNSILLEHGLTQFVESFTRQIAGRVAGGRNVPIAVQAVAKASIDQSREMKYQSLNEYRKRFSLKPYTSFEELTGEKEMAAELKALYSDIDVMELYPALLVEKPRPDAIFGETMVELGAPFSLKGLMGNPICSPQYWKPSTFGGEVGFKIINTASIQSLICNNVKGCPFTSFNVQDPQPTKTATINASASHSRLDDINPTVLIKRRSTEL
Experiment: Evaluation of COX-2 activity: PGE2 production in LPS-stimulated J774 cells
Details: J774 cells stimulated 24 hours with LPS 10 μg/mL; PGE2 by radio-immunological assay; read-out: Cyclooxygenase inhibition COX-2 IC50
Property measured: IC50 (µM)

Molecule	Target entity	Measurement unit	Measured
Cc1c(CCOCCO)cc(-c2ccc(S(C)(=O)=O)cc2)n1-c1ccc(F)c(F)c1 [Example 39-II]	COX-2 (Mus musculus (Mouse))	µM	0.42
Cc1c(CCOCCCO[N+](=O)[O-])cc(-c2ccc(S(C)(=O)=O)cc2)n1-c1cccc(F)c1 [Example 42]	COX-2 (Mus musculus (Mouse))	µM	0.43
COc1ccc(-n2c(-c3ccc(S(C)(=O)=O)cc3)cc(CC(=O)OCCCO)c2C)cc1 [Example 9-II]	COX-2 (Mus musculus (Mouse))	µM	0.7
Cc1c(CCOCCCO[N+](=O)[O-])cc(-c2ccc(S(C)(=O)=O)cc2)n1-c1ccccc1 [Example 40]	COX-2 (Mus musculus (Mouse))	µM	0.015
Cc1c(CC(=O)NC(CO[N+](=O)[O-])C(=O)O)cc(-c2ccc(S(C)(=O)=O)cc2)n1-c1cccc(F)c1 (stereo in doubt) [Example 30]	COX-2 (Mus musculus (Mouse))	µM	0.14
Cc1c(CCOCCO)cc(-c2ccc(S(C)(=O)=O)cc2)n1-c1cccc(F)c1 [Example 38-II]	COX-2 (Mus musculus (Mouse))	µM	0.046
COc1ccc(-n2c(-c3ccc(S(C)(=O)=O)cc3)cc(CC(=O)OCCCO[N+](=O)[O-])c2C)cc1 [Example 9]	COX-2 (Mus musculus (Mouse))	µM	0.002
Cc1c(CC(=O)OCCCO)cc(-c2ccc(S(C)(=O)=O)cc2)n1-c1cccc(F)c1 [Example 8-II]	COX-2 (Mus musculus (Mouse))	µM	0.023
Cc1c(CC(=O)NC(CO[N+](=O)[O-])C(=O)O)cc(-c2ccc(S(C)(=O)=O)cc2)n1-c1ccc(F)cc1 (stereo in doubt) [Example 29]	COX-2 (Mus musculus (Mouse))	µM	0.31
CSc1ccc(-n2c(-c3ccc(S(C)(=O)=O)cc3)cc(CC(=O)OCCO)c2C)cc1 [Example 5-II]	COX-2 (Mus musculus (Mouse))	µM	0.085
CSc1ccc(-n2c(-c3ccc(S(C)(=O)=O)cc3)cc(CC(=O)OCCCO[N+](=O)[O-])c2C)cc1 [Example 10]	COX-2 (Mus musculus (Mouse))	µM	0.027
Cc1c(CC(=O)OCCO[N+](=O)[O-])cc(-c2ccc(S(C)(=O)=O)cc2)n1-c1ccccc1 [Example 1]	COX-2 (Mus musculus (Mouse))	µM	0.043
Cc1c(CC(=O)NCCO)cc(-c2ccc(S(C)(=O)=O)cc2)n1-c1cccc(F)c1 [Example 24-II]	COX-2 (Mus musculus (Mouse))	µM	0.29
Cc1c(CCOCCCO)cc(-c2ccc(S(C)(=O)=O)cc2)n1-c1cccc(F)c1 [Example 42-II]	COX-2 (Mus musculus (Mouse))	µM	1.5
Cc1c(CC(=O)OCCCCO[N+](=O)[O-])cc(-c2ccc(S(C)(=O)=O)cc2)n1-c1cccc(F)c1 [Example 12]	COX-2 (Mus musculus (Mouse))	µM	0.069
